Molecular target: T1, human c-Met, membrane-bound on cells (human, UniProt P08581 25-1390)
T1 construct: whole, on cells; A431 cells carry on average 30,000 copies of c-Met per cell (Qifi); also called c-Met expressed on A431 cells; c-Met on A549 cells
T1 sequence (P08581 25-1390): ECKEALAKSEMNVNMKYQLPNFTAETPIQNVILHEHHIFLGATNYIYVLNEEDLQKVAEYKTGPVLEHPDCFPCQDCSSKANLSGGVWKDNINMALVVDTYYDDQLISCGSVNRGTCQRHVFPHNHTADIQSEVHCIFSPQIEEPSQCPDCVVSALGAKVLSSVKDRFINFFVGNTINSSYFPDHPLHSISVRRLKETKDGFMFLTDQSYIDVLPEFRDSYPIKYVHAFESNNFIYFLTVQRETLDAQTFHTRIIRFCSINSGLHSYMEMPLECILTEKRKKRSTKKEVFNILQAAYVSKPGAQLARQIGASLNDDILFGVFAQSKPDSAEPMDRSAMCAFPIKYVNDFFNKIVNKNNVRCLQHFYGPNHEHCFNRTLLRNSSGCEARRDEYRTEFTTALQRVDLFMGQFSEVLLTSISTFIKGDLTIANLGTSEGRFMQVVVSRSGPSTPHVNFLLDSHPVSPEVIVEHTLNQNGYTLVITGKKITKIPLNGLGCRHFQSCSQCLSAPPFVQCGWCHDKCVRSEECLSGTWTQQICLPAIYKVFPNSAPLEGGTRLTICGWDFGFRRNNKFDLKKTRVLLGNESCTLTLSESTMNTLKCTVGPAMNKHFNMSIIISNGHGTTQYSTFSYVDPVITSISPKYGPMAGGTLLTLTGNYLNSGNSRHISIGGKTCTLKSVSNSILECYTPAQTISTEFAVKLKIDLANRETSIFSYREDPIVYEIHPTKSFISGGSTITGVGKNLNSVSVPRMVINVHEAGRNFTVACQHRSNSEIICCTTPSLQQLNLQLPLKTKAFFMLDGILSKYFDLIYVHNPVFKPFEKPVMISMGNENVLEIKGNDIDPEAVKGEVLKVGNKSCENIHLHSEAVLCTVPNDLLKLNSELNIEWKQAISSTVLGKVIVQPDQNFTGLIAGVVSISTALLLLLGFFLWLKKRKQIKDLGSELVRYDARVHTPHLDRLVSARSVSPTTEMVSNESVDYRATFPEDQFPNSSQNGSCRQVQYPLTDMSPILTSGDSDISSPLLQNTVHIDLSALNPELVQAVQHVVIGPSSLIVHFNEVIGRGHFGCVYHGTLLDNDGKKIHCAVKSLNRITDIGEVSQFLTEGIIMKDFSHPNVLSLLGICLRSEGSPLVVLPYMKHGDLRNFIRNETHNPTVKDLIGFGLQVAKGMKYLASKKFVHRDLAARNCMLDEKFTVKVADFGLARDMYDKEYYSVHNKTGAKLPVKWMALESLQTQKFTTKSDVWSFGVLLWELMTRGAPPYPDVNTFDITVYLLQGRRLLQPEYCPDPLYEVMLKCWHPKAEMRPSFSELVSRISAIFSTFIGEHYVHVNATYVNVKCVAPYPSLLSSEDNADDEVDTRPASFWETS
Assay: flow cytometry on A431 cells (PE goat anti-human IgG); third panel
Property: pEC50
Formally, pEC50 is defined as -log10 of the concentration c, with c in mol/L.

Exercise: Entry anti-c-Met HuMab 035 (IgG1) (antibody, V domains shown, also called P1016-035; TH1016-035-D09) VH: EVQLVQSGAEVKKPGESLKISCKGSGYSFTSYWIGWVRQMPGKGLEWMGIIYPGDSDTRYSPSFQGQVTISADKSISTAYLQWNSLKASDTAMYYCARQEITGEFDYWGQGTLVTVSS VL: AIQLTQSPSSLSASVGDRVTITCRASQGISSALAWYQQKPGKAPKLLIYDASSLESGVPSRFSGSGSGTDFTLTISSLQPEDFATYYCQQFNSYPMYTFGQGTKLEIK has what pEC50?
Key: 8.75
